# Study System: p38MAPKγ (MAPK12) (Homo sapiens (Human), UniProt P53778)
# Sequence (P53778 whole entry): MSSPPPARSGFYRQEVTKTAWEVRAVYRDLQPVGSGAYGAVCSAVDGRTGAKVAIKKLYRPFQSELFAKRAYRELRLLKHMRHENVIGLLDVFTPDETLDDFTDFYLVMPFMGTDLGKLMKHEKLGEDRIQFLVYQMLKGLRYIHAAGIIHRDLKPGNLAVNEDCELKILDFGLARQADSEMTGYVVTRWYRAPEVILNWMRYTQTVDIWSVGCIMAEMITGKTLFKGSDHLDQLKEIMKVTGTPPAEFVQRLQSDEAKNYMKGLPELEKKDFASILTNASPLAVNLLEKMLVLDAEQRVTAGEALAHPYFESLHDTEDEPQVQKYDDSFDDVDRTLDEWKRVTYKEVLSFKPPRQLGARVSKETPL
# Assay Remarks: p38 MAPKγ enzyme inhibition (FRET, Z-LYTE)
# Format: biochemical
Test Readout: IC50

Smiles Data: Cc1ccc(-n2nc(C(C)(C)C)cc2NC(=O)Nc2ccc(Oc3ccnc(Nc4ccc(O)cc4F)n3)c3ccccc23)cc1
Test Readout: IC50
Reported Measurement: > 1.62 µM

Smiles Data: COc1cc(Nc2nccc(Oc3ccc(NC(=O)Nc4cc(C(C)(C)C)nn4-c4ccc(C)cc4)c4ccccc34)n2)ccc1O
Test Readout: IC50
Reported Measurement: 0.281 µM

Smiles Data: Cc1ccc(-n2nc(C(C)(C)C)cc2NC(=O)Nc2ccc(Oc3ccnc(Nc4ccccc4Cl)n3)c3ccccc23)cc1
Test Readout: IC50
Reported Measurement: > 16.2 µM

Smiles Data: Cc1ccc(-n2nc(C(C)(C)C)cc2NC(=O)Nc2ccc(Oc3ccnc(Nc4ccccc4C(C)C)n3)c3ccccc23)cc1
Test Readout: IC50
Reported Measurement: > 16 µM

Smiles Data: Cc1ccc(-n2nc(C(C)(C)C)cc2NC(=O)Nc2ccc(Oc3ccnc(Nc4ccc(C)c(O)c4)n3)c3ccccc23)cc1
Test Readout: IC50
Reported Measurement: > 1.63 µM

Smiles Data: COc1ccc(-n2nc(C(C)(C)C)cc2NC(=O)Nc2ccc(Oc3ccnc(Nc4ccccc4)n3)c3ccccc23)cc1
Test Readout: IC50
Reported Measurement: 1.7 µM

Smiles Data: Cc1ccc(-n2nc(C(C)(C)C)cc2NC(=O)Nc2ccc(Oc3ccnc(Nc4ccc(O)cc4O)n3)c3ccccc23)cc1
Test Readout: IC50
Reported Measurement: > 1.62 µM

---

# Study System: p38 MAPKα isoform (MAPK14) (Homo sapiens (Human), UniProt Q16539)
# Sequence (Q16539 whole entry, canonical isoform): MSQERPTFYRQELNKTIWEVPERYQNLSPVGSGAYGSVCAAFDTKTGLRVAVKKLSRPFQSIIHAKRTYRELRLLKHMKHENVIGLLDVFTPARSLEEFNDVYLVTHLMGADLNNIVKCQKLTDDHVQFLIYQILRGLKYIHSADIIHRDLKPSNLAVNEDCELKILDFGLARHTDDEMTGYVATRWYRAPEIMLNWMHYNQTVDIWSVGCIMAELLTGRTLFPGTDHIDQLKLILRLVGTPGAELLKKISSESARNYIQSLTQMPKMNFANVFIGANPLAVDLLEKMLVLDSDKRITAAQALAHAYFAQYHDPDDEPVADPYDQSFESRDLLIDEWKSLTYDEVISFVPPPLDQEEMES
# Assay Remarks: p38 MAPKα enzyme inhibition (FRET, Z-LYTE)
pIC50: −log10 of the molar value.

Compound: Cc1ccc(-n2nc(C(C)(C)C)cc2NC(=O)Nc2ccc(Oc3ccnc(Nc4ccc(O)cc4F)n3)c3ccccc23)cc1 [Example 30]
pIC50: 7.17
//
Compound: Cc1ccc(-n2nc(C(C)(C)C)cc2NC(=O)Nc2ccc(Oc3ccnc(Nc4ccccc4C)n3)c3ccccc23)cc1 [Example 21]
pIC50: 7.48
//
Compound: COc1ccc(Nc2nccc(Oc3ccc(NC(=O)Nc4cc(C(C)(C)C)nn4-c4ccc(C)cc4)c4ccccc34)n2)cc1Cl [Example 28]
pIC50: 5.85
//
Compound: COc1ccc(-n2nc(C(C)(C)C)cc2NC(=O)Nc2ccc(Oc3ccnc(Nc4ccccc4)n3)c3ccccc23)cc1 [Example 7]
pIC50: 6.77
//
Compound: COc1ccc(-n2nc(C(C)(C)C)cc2NC(=O)Nc2ccc(Oc3ccnc(Nc4ccc(O)cc4)n3)c3ccccc23)cc1 [Example 33]
pIC50: 7.22
//
Compound: Cc1ccc(-n2nc(C(C)(C)C)cc2NC(=O)Nc2ccc(Oc3ccnc(Nc4ccccc4F)n3)c3ccccc23)cc1 [Example 4]
pIC50: 6.78
//
Compound: Cc1ccc(-n2nc(C(C)(C)C)cc2NC(=O)Nc2ccc(Oc3ccnc(Nc4ccc(C)c(O)c4)n3)c3ccccc23)cc1 [Example 26]
pIC50: 6.26
//
Compound: Cc1ccc(-n2nc(C(C)(C)C)cc2NC(=O)Nc2ccc(Oc3ccnc(Nc4ccc(O)cc4Cl)n3)c3ccccc23)cc1 [Example 31]
pIC50: 6.93
//
Compound: Cc1ccc(-n2nc(C(C)(C)C)cc2NC(=O)Nc2ccc(Oc3ccnc(Nc4cc(C)ccc4C)n3)c3ccccc23)cc1 [Example 10]
pIC50: 6.71

---

# Study System: p38 MAPKα isoform (MAPK14) (Homo sapiens (Human))
# Assay Remarks: p38 MAPKα enzyme inhibition (FRET, Z-LYTE)
Classification scheme (IC50): lower band (below 100 nM), central band (100 nM to below 200 nM), upper band (200 nM or more)

Smiles Data: Cc1ccc(-n2nc(C(C)(C)C)cc2NC(=O)Nc2ccc(Oc3ccnc(Nc4ccc(O)cc4)n3)c3ccccc23)cc1
Class Name: central band

Smiles Data: Cc1ccc(-n2nc(C(C)(C)C)cc2NC(=O)Nc2ccc(Oc3ccnc(Nc4ccc(O)cc4C)n3)c3ccccc23)cc1
Class Name: lower band

Smiles Data: COc1ccc(Nc2nccc(Oc3ccc(NC(=O)Nc4cc(C(C)(C)C)nn4-c4ccc(C)cc4)c4ccccc34)n2)cc1
Class Name: lower band

Smiles Data: CCOc1ccc(Nc2nccc(Oc3ccc(NC(=O)Nc4cc(C(C)(C)C)nn4-c4ccc(C)cc4)c4ccccc34)n2)cc1
Class Name: upper band

Smiles Data: Cc1ccc(-n2nc(C(C)(C)C)cc2NC(=O)Nc2ccc(Oc3ccnc(Nc4ccc(O)c(F)c4)n3)c3ccccc23)cc1
Class Name: upper band

Smiles Data: Cc1ccc(-n2nc(C(C)(C)C)cc2NC(=O)Nc2ccc(Oc3ccnc(Nc4ccc(F)cc4)n3)c3ccccc23)cc1
Class Name: upper band

Smiles Data: COc1cccc(Nc2nccc(Oc3ccc(NC(=O)Nc4cc(C(C)(C)C)nn4-c4ccc(C)cc4)c4ccccc34)n2)c1
Class Name: central band

Smiles Data: Cc1ccc(-n2nc(C(C)(C)C)cc2NC(=O)Nc2ccc(Oc3ccnc(Nc4cccc(Cl)c4)n3)c3ccccc23)cc1
Class Name: upper band

Smiles Data: COc1ccccc1Nc1nccc(Oc2ccc(NC(=O)Nc3cc(C(C)(C)C)nn3-c3ccc(C)cc3)c3ccccc23)n1
Class Name: central band

Smiles Data: Cc1ccc(-n2nc(C(C)(C)C)cc2NC(=O)Nc2ccc(Oc3ccnc(Nc4ccc(Cl)cc4)n3)c3ccccc23)cc1
Class Name: upper band

Smiles Data: COc1cc(Nc2nccc(Oc3ccc(NC(=O)Nc4cc(C(C)(C)C)nn4-c4ccc(C)cc4)c4ccccc34)n2)ccc1O
Class Name: lower band

Smiles Data: Cc1ccc(-n2nc(C(C)(C)C)cc2NC(=O)Nc2ccc(Oc3ccnc(Nc4ccc(Cl)cc4C)n3)c3ccccc23)cc1
Class Name: central band

Smiles Data: Cc1ccc(-n2nc(C(C)(C)C)cc2NC(=O)Nc2ccc(Oc3ccnc(Nc4ccccc4Cl)n3)c3ccccc23)cc1
Class Name: central band

Smiles Data: Cc1ccc(-n2nc(C(C)(C)C)cc2NC(=O)Nc2ccc(Oc3ccnc(Nc4ccccc4C(C)C)n3)c3ccccc23)cc1
Class Name: lower band

---

# Study System: GSK 3α enzyme isoform (Homo sapiens (Human), UniProt P49840)
# Sequence (P49840 whole entry, canonical isoform): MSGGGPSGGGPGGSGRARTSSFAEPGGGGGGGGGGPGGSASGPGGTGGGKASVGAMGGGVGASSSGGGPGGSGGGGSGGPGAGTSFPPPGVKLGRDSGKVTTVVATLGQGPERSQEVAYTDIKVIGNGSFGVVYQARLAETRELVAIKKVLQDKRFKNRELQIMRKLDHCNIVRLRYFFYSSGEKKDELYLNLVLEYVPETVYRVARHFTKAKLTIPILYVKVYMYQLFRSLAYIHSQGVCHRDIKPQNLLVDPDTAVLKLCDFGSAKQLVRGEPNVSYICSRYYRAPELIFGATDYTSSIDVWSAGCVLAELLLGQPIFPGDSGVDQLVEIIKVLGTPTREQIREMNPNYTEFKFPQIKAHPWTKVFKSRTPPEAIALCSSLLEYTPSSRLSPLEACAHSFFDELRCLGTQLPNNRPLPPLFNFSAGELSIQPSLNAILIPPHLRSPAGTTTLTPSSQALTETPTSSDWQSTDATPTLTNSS
# Assay Remarks: GSK 3α enzyme inhibition (FRET, Z-LYTE)
# Format: biochemical
# Condition Notes: read-out: IC50 Values for Enzyme Inhibition GSK3α

Smiles Data: CCOc1ccc(Nc2nccc(Oc3ccc(NC(=O)Nc4cc(C(C)(C)C)nn4-c4ccc(C)cc4)c4ccccc34)n2)cc1
IC50: > 1.59 µM
//
Smiles Data: Cc1ccc(Nc2nccc(Oc3ccc(NC(=O)Nc4cc(C(C)(C)C)nn4-c4ccc(C)cc4)c4ccccc34)n2)cc1
IC50: > 16.7 µM
//
Smiles Data: COc1ccc(-n2nc(C(C)(C)C)cc2NC(=O)Nc2ccc(Oc3ccnc(Nc4ccccc4)n3)c3ccccc23)cc1
IC50: 3.5 µM
//
Smiles Data: Cc1ccc(-n2nc(C(C)(C)C)cc2NC(=O)Nc2ccc(Oc3ccnc(Nc4ccc(O)cc4C)n3)c3ccccc23)cc1
IC50: > 1.59 µM
//
Smiles Data: Cc1ccc(-n2nc(C(C)(C)C)cc2NC(=O)Nc2ccc(Oc3ccnc(Nc4ccc(O)cc4Cl)n3)c3ccccc23)cc1
IC50: > 1.58 µM
//
Smiles Data: Cc1ccc(-n2nc(C(C)(C)C)cc2NC(=O)Nc2ccc(Oc3ccnc(Nc4ccc(O)cc4O)n3)c3ccccc23)cc1
IC50: > 1.62 µM
//
Smiles Data: CC(C)(C)c1cc(NC(=O)Nc2ccc(Oc3ccnc(Nc4ccccc4)n3)c3ccccc23)n(-c2ccc(O)cc2)n1
IC50: 2.49 µM
//
Smiles Data: Cc1ccc(-n2nc(C(C)(C)C)cc2NC(=O)Nc2ccc(Oc3ccnc(Nc4ccc(F)cc4)n3)c3ccccc23)cc1
IC50: > 1.66 µM
//
Smiles Data: COc1ccc(Nc2nccc(Oc3ccc(NC(=O)Nc4cc(C(C)(C)C)nn4-c4ccc(C)cc4)c4ccccc34)n2)cc1Cl
IC50: > 1.54 µM
//
Smiles Data: Cc1ccc(-n2nc(C(C)(C)C)cc2NC(=O)Nc2ccc(Oc3ccnc(Nc4ccccc4F)n3)c3ccccc23)cc1
IC50: > 16.6 µM
//
Smiles Data: Cc1ccc(-n2nc(C(C)(C)C)cc2NC(=O)Nc2ccc(Oc3ccnc(Nc4ccccc4C)n3)c3ccccc23)cc1
IC50: > 1.67 µM
//
Smiles Data: Cc1ccc(-n2nc(C(C)(C)C)cc2NC(=O)Nc2ccc(Oc3ccnc(Nc4ccc(Cl)cc4)n3)c3ccccc23)cc1
IC50: > 16.2 µM
//
Smiles Data: Cc1ccc(-n2nc(C(C)(C)C)cc2NC(=O)Nc2ccc(Oc3ccnc(Nc4cc(C)ccc4C)n3)c3ccccc23)cc1
IC50: > 16.3 µM
//
Smiles Data: Cc1ccc(-n2nc(C(C)(C)C)cc2NC(=O)Nc2ccc(Oc3ccnc(Nc4ccc(O)cc4)n3)c3ccccc23)cc1
IC50: 3.26 µM
//
Smiles Data: Cc1ccc(-n2nc(C(C)(C)C)cc2NC(=O)Nc2ccc(Oc3ccnc(Nc4ccc(O)c(F)c4)n3)c3ccccc23)cc1
IC50: > 1.62 µM
//
Smiles Data: Cc1ccc(-n2nc(C(C)(C)C)cc2NC(=O)Nc2ccc(Oc3ccnc(Nc4ccc(Cl)cc4C)n3)c3ccccc23)cc1
IC50: > 15.8 µM
//
Smiles Data: Cc1ccc(-n2nc(C(C)(C)C)cc2NC(=O)Nc2ccc(Oc3ccnc(Nc4ccccc4C(C)C)n3)c3ccccc23)cc1
IC50: > 16 µM
//
Smiles Data: COc1ccc(Nc2nccc(Oc3ccc(NC(=O)Nc4cc(C(C)(C)C)nn4-c4ccc(C)cc4)c4ccccc34)n2)c(OC)c1
IC50: > 15.5 µM
//
Smiles Data: COc1ccccc1Nc1nccc(Oc2ccc(NC(=O)Nc3cc(C(C)(C)C)nn3-c3ccc(C)cc3)c3ccccc23)n1
IC50: > 16.3 µM
//
Smiles Data: COc1ccc(Nc2nccc(Oc3ccc(NC(=O)Nc4cc(C(C)(C)C)nn4-c4ccc(C)cc4)c4ccccc34)n2)cc1
IC50: > 16.3 µM
//
Smiles Data: COc1ccc(Nc2nccc(Oc3ccc(NC(=O)Nc4cc(C(C)(C)C)nn4-c4ccc(C)cc4)c4ccccc34)n2)cc1OC
IC50: 2.11 µM
//
Smiles Data: Cc1ccc(-n2nc(C(C)(C)C)cc2NC(=O)Nc2ccc(Oc3ccnc(Nc4cccc(F)c4)n3)c3ccccc23)cc1
IC50: > 16.6 µM
//
Smiles Data: COc1ccc(-n2nc(C(C)(C)C)cc2NC(=O)Nc2ccc(Oc3ccnc(Nc4ccc(O)cc4)n3)c3ccccc23)cc1
IC50: 2.38 µM

Hey, just so you know, these numbers are from patent US9724347B2.
